Test system: TO-N3 (biotin conjugate)
Assay: pull-down binding Z-score (relative to library population); higher = stronger binding
Settings: RNA library: Library-2
Listed here are sequences together with their documented pull-down binding Z-score.
Give only the figure.

Previously resolved entries follow.
# Macromolecule Sequence, pull-down binding Z-score
data = [
    ("GUCUGAUAAUGGACCCCAAAAUCAGCGAAAUGCACCCCGCAUUACGUUUGGUGGACCCUCAGAU", -0.521),
    ("CUGUGACGUGCUCCAUCACCGGGCAG [hsa-mir-3714]", -0.0254),
    ("GUGUCUGGAGACGCCAGGCAGC [hsa-mir-4323]", 0.127),
]

Query string: Find the recorded pull-down binding Z-score belonging to GGGACUUAUGAUUAUCCC [IAV_invivo_HA_4_Motif_18+IAV_invivo_HA_4_Motif_18] and report it.
Result string: -0.122

Query string: For UAAAUAAGGGACACUUUGAUGGACAACAGGGUGAAGUACCAGUUUCUAUCAUUAAUAACACUGUUUACACAAAAGUUGAUGGUGUUGAUGUAGAAUUGUUUG , what is its reported pull-down binding Z-score?
Result string: -0.00789

Query string: // query pull-down binding Z-score value for entry GGGGCUGGUUGUCUA [hsa-mir-6080]
Result string: 0.377

Query string: Looking for the measured pull-down binding Z-score of AAGUAGUUGGCGUCUUCAGAGACACUU [hsa-mir-643] , can you help?
Result string: 0.531

Query string: Which pull-down binding Z-score is listed for AUUAGAGAAAACAACAGAGUUGUUAUUUCUAGU [DMSMaPseq_invitro_SARS-CoV-2_Motif_378] ?
Result string: -0.17

Query string: Look up pull-down binding Z-score for this sequence: CAGAGGCAUCGGGUCAG [hsa-mir-4746]
Result string: 1.19

Query string: // lookup pull-down binding Z-score for GAGUGAGGCCCAGUGGUCACCGCCGCCCUC [hsa-mir-4754]
Result string: 1.11
